A collection of molecules and their measured pIC50
# Assay target: Amyloid-beta precursor protein (Homo sapiens, UniProt P05067)
# Sequence (P05067 whole entry): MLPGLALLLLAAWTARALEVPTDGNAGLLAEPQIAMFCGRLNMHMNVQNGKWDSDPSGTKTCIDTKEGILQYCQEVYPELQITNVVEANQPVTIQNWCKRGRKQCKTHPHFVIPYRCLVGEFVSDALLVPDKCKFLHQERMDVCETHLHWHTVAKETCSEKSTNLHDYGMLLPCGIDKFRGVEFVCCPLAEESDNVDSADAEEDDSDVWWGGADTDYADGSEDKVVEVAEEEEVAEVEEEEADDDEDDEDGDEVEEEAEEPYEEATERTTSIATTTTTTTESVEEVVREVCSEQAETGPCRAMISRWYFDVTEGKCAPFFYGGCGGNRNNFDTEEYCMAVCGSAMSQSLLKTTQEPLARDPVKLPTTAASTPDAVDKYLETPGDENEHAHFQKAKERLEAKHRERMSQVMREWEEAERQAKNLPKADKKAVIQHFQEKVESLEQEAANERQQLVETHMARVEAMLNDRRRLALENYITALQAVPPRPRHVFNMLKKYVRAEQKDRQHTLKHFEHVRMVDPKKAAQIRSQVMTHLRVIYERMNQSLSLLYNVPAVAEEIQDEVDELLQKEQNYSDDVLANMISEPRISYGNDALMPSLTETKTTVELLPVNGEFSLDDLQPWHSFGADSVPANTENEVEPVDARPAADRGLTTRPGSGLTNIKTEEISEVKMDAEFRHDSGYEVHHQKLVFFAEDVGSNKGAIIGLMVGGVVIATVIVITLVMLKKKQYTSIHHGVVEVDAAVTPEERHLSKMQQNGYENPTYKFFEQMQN
# Protocol notes: Inhibition of amyloid beta 42 secretion transfected in human H4 cells incubated for 20 to 24 hrs by LPECL assay
Lab note: report pIC50 as minus log10 of the concentration in molar units, number only.

Examples with answers:
>  <Record smiles>
COc1cc(/C=C/c2cc(/C=C/c3ccc(O)c(OC)c3)n(-c3ccccc3)n2)ccc1O

>  <Assay target>
Amyloid-beta precursor protein (Homo sapiens, UniProt P05067)

>  <pIC50>
4.85

$$$$
>  <Record smiles>
COc1cc(/C=C/c2cc(/C=C/c3ccc(O)c(OC)c3)n(C)n2)ccc1O

>  <Assay target>
Amyloid-beta precursor protein (Homo sapiens, UniProt P05067)

>  <pIC50>
5.05

$$$$
>  <Record smiles>
COc1cc(/C=C/c2cc(/C=C/c3ccc(O)c(OC)c3)n(CCO)n2)ccc1O

>  <Assay target>
Amyloid-beta precursor protein (Homo sapiens, UniProt P05067)

>  <pIC50>
4.76

$$$$

Here is another molecule to look at.
Kindly note the recorded pIC50 for COc1cc(/C=C/c2cc(/C=C/c3ccc(O)c(OC)c3)[nH]n2)ccc1O , which is 5.06

* * *

# Assay target: Amyloid-beta precursor protein (Homo sapiens, UniProt P05067)
# Protocol notes: Inhibition of amyloid beta 40 secretion transfected in human H4 cells incubated for 20 to 24 hrs by LPECL assay
Observed property: IC50 (µM)
Lab book: enter the figure in µM, no units written.

>  <Record smiles>
COc1cc(/C=C/c2cc(/C=C/c3ccc(O)c(OC)c3)n(-c3cc(Cl)cc(Cl)c3)n2)ccc1O

>  <Measure unit>
µM

>  <IC50>
6.3

$$$$
>  <Record smiles>
COc1cc(/C=C/c2cc(/C=C/c3ccc(O)c(OC)c3)n(Cc3ccccc3)n2)ccc1O

>  <Measure unit>
µM

>  <IC50>
11.5

$$$$
>  <Record smiles>
COc1cc(/C=C/c2cc(/C=C/c3ccc(O)c(OC)c3)n(-c3ccc(C)cc3)n2)ccc1O

>  <Measure unit>
µM

>  <IC50>
8.7

$$$$
>  <Record smiles>
COc1cc(/C=C/c2cc(/C=C/c3ccc(O)c(OC)c3)n(-c3ccc([N+](=O)[O-])cc3)n2)ccc1O

>  <Measure unit>
µM

>  <IC50>
6.2

$$$$
>  <Record smiles>
COc1cc(/C=C/c2cc(/C=C/c3ccc(O)c(OC)c3)n(C)n2)ccc1O

>  <Measure unit>
µM

>  <IC50>
10.4

$$$$

Kindly note the recorded IC50 for COc1cc(/C=C/c2cc(/C=C/c3ccc(O)c(OC)c3)n(-c3ccc(Cl)nn3)n2)ccc1O , which is 5.4

* * *

# Assay target: UniProt:P05067
# Protocol notes: Inhibition of amyloid beta 40 secretion transfected in human H4 cells incubated for 20 to 24 hrs by LPECL assay
Observed property: pIC50
Lab note: report pIC50 as minus log10 of the concentration in molar units, number only.

Examples with answers:
>  <Record smiles>
COc1cc(/C=C/c2cc(/C=C/c3ccc(O)c(OC)c3)n(-c3ccc(C(C)C)cc3)n2)ccc1O

>  <Assay target>
UniProt:P05067

>  <pIC50>
5.16

$$$$
>  <Record smiles>
COc1cc(/C=C/c2cc(/C=C/c3ccc(O)c(OC)c3)n(-c3cccc([N+](=O)[O-])c3)n2)ccc1O

>  <Assay target>
UniProt:P05067

>  <pIC50>
4.82

$$$$
>  <Record smiles>
COc1cc(/C=C/c2cc(/C=C/c3ccc(O)c(OC)c3)[nH]n2)ccc1O

>  <Assay target>
UniProt:P05067

>  <pIC50>
5.01

$$$$
>  <Record smiles>
COc1cc(/C=C/c2cc(/C=C/c3ccc(O)c(OC)c3)n(-c3ccccc3)n2)ccc1O

>  <Assay target>
UniProt:P05067

>  <pIC50>
4.95

$$$$
>  <Record smiles>
COc1cc(/C=C/c2cc(/C=C/c3ccc(O)c(OC)c3)on2)ccc1O

>  <Assay target>
UniProt:P05067

>  <pIC50>
5.13

$$$$
>  <Record smiles>
COc1cc(/C=C/c2cc(/C=C/c3ccc(OCC(=O)O)c(OC)c3)on2)ccc1OCC(=O)O

>  <Assay target>
UniProt:P05067

>  <pIC50>
4.85

$$$$

Here is another compound to look at.
Kindly note the recorded pIC50 for COc1cc(/C=C/c2cc(/C=C/c3ccc(O)c(OC)c3)n(CCO)n2)ccc1O , which is 4.75
